- System: wild oat
- test.summary: Test B pre/postemergence wild oat
- Format: in vivo, Avena fatua
- test.context: Postemergence, Rate 125 g/ha; scale of 0 to 10 where 0 is no effect and 10 is complete control
Answer each item with its documented Wild oats plant response rating.
Number only, no unit.

Request: So what's the measured Wild oats plant response rating for this one? `C=CCn1c(=O)on(C(=O)N(c2ccc(F)cc2F)C2CC2)c1=O`
Response: 0

Request: Lookup `CC(C)N(C(=O)n1oc(=O)n(C(C)C)c1=O)c1ccccc1`
Response: 2

Request: Further, for COC(=O)C(CCO)n1c(=O)on(C(=O)N(c2ccc(Cl)cc2)C(C)C)c1=O (stereo not shown) ?
Response: 0

Request: # iterate: `CC(C)N(C(=O)n1oc(=O)n(Cc2ccccc2)c1=O)c1ccc(Cl)cc1`
Response: 0

====

So I've got a bunch of compounds here, and I need their Soybean plant response rating values.
- Test system: soybean
- test.summary: Test B pre/postemergence soybean
- Type: in vivo, Glycine max
- test.context: Rate 500 g/ha, Postemergence; scale 0 to 10

Request: Entry `Cc1nsc(C)c1-n1c(=O)on(C(=O)N(c2ccc(F)cc2F)C(C)C)c1=O` has what Soybean plant response rating?
Response: 5

Request: Now this one: `C=CCn1c(=O)on(C(=O)N(c2ccc(F)cc2F)C2CC2)c1=O`
Response: 0

Request: Please do the same for `CC(C)N(C(=O)n1oc(=O)n(Cc2ccccc2Cl)c1=O)C1=CCCCC1` as well.
Response: 5

Request: `CCN(Cc1ccccc1)C(=O)n1oc(=O)n(C(C)C)c1=O` ?
Response: 3

Request: Next: `Cc1ccccc1-n1c(=O)on(C(=O)N(c2cccc(F)c2F)C(C)C)c1=O`
Response: 3

====

- Test system: morningglory
- test.summary: Test B pre/postemergence morningglory
- Format: in vivo, Ipomoea hederacea
- test.context: Preemergence, Rate 500 g/ha; scale of 0 to 10 where 0 is no effect and 10 is complete control
assay.endpoint: Plant response rating, Morningglory

Request: Query (compound): CC(C)N(C(=O)n1oc(=O)n(CC(C)[N+](=O)[O-])c1=O)c1ccc(F)cc1F (stereo not drawn) ; field requested: Plant response rating, Morningglory
Response: 0

Request: // same read-out, input: CCOC(=O)C(C)N(C(=O)n1oc(=O)n(-c2ccccc2C)c1=O)c1ccc(F)cc1 (stereo not drawn)
Response: 0

Request: Then this compound: `CCN(C(=O)n1oc(=O)n(C2CC2)c1=O)C1CCCCC1`
Response: 0

Request: Also `Cc1ccccc1-n1c(=O)on(C(=O)N(c2ccc(C(C)C)cc2)C(C)C)c1=O` , if possible.
Response: 6

Request: # repeat for `CC(C)N(C(=O)n1oc(=O)n(Cc2ccccn2)c1=O)c1ccc(F)cc1`
Response: 0

Request: Try the compound `CC(C)N(C(=O)n1oc(=O)n(CCC(=O)N(C)C)c1=O)c1ccc(F)cc1`
Response: 7

Request: Another: `CCn1ncc(Cn2c(=O)on(C(=O)N(c3ccc(F)cc3F)C(C)C)c2=O)c1Cl`
Response: 3

Request: Repeat with `CC(C)N(C(=O)n1oc(=O)n(COCc2ccccc2)c1=O)c1ccc(F)cc1`
Response: 0

Request: Moving on to the next compound: `COP(=O)(CCn1c(=O)on(C(=O)N(c2ccc(F)cc2)C(C)C)c1=O)OC`
Response: 1

====

- Test system: blackgrass
- test.summary: Test B pre/postemergence blackgrass
- Assay type: in vivo, Alopecurus myosuroides
- test.context: Preemergence, Rate 500 g/ha; scale of 0 to 10 where 0 is no effect and 10 is complete control
Would you mind telling me the reported Plant response rating, Blackgrass of each entry?

Request: May I ask what Plant response rating, Blackgrass has been recorded for CC(C)N(C(=O)n1oc(=O)n(C[C@H](C)Cl)c1=O)c1ccc(F)cc1F [Compound 714] ?
Response: 9

Request: Now consider CC(C)N(C(=O)n1oc(=O)n(CCCCl)c1=O)c1ccc(F)cc1 [Compound 713] .
Response: 9

Request: What do we get for Cc1nc(C)c(Cn2c(=O)on(C(=O)N(c3ccc(F)cc3F)C(C)C)c2=O)s1 [Compound 233] ?
Response: 9

Request: Same question, CC(C)N(C(=O)n1oc(=O)n(Cc2ccccn2)c1=O)c1ccc(F)cc1 [Compound 267] this time
Response: 8

Request: Please give the result for CCCCCCn1c(=O)on(C(=O)N(c2ccc(F)cc2F)C(C)C)c1=O [Compound 637] too.
Response: 9

Request: Repeat for the following compound: COc1cc(C)cc(C)c1-n1c(=O)on(C(=O)N(c2ccc(F)cc2)C(C)C)c1=O [Compound 222]
Response: 0

Request: Quick one: CC(C)N(C(=O)n1oc(=O)n(CCF)c1=O)c1ccccc1 [Compound 669]
Response: 10

Request: Similarly, CC(C)N(C(=O)n1oc(=O)n(CCC(=O)N(C)C)c1=O)c1ccc(F)cc1 [Compound 638] ?
Response: 9

Request: Quick one: Cc1ccccc1-n1c(=O)on(C(=O)N(c2ccc(C(C)C)cc2)C(C)C)c1=O [Compound 231]
Response: 0

====

- Tested on: velvetleaf
- test.summary: Test B pre/postemergence velvetleaf
- Format: in vivo, Abutilon theophrasti
- test.context: Preemergence, Rate 125 g/ha; scale of 0 to 10 where 0 is no effect and 10 is complete control
assay.endpoint: Velvetleaf plant response rating

Request: Which Velvetleaf plant response rating is reported for this compound? COP(=O)(CCn1c(=O)on(C(=O)N(c2ccc(F)cc2)C(C)C)c1=O)OC [Compound 662]
Response: 0

Request: Now the compound CC(C)N(C(=O)n1oc(=O)n(CCF)c1=O)c1ccccc1 [Compound 669]
Response: 0

Request: And then CC(C)N(C(=O)n1oc(=O)n(CC(=O)C2CCC2)c1=O)c1ccc(F)cc1F [Compound 642] , what is it?
Response: 0

Request: Try this compound too: C#CC(C)n1c(=O)on(C(=O)N(c2ccccc2)C(C)C)c1=O (stereo not shown) [Compound 609]
Response: 8

====

- Test system: surinam grass
- test.summary: Test B pre/postemergence surinam grass
- Format: in vivo, Brachiaria decumbens
- test.context: Postemergence, Rate 125 g/ha; scale 0 to 10, 0 is no effect, 10 is complete control
For each entry below, report its B. signalgrass plant response rating value.
Form field (numeric): enter value without unit.

Request: Requested field: B. signalgrass plant response rating. Item: `CC(C)N(C(=O)n1oc(=O)n(C[Si](C)(C)C)c1=O)c1ccc(F)cc1F`
Response: 7

Request: Item: `CC(C)N(C(=O)n1oc(=O)n(CCCNC(=O)CCl)c1=O)c1ccccc1`
Response: 0

Request: How about this compound: `CC(=O)OCCCCn1c(=O)on(C(=O)N(c2ccc(F)cc2F)C(C)C)c1=O`
Response: 0

Request: Same again, this time with `CC(C)N(C(=O)n1oc(=O)n(CC2=NCCCO2)c1=O)c1ccccc1`
Response: 0

====

Consider the following compounds; for each one, report its B. signalgrass plant response rating.
- System: surinam grass
- test.summary: Test B pre/postemergence surinam grass
- Assay type: in vivo, Brachiaria decumbens
- test.context: Preemergence, Rate 250 g/ha; scale of 0 to 10 where 0 is no effect and 10 is complete control
When you answer, write just the number.

Request: Look up B. signalgrass plant response rating: CC1CC1n1c(=O)on(C(=O)N(c2ccccc2)C(C)C)c1=O (centres unmarked)
Response: 2

Request: And CCOC(=O)C(C)N(C(=O)n1oc(=O)n(-c2ccccc2C)c1=O)c1ccc(F)cc1 (centres unmarked) ?
Response: 0

Request: Entry CCOC(=O)C(C)N(C(=O)n1oc(=O)n(C)c1=O)c1ccc(F)cc1 (centres unmarked) please
Response: 0

Request: Now the same for `CC(C)N(C(=O)n1oc(=O)n(C2CCCC2)c1=O)c1ccc(F)cc1`
Response: 8

Request: # iterate: `Cc1ccccc1-n1c(=O)on(C(=O)N(c2ccc(Oc3ccccc3)cc2)C(C)C)c1=O`
Response: 0

Request: Okay, and CC1Cc2cccc(-n3c(=O)on(C(=O)N(c4ccc(F)cc4)C(C)C)c3=O)c2O1 (centres unmarked) ?
Response: 0

Request: Same for `CC(C)N(C(=O)n1oc(=O)n(C2(C)CC2)c1=O)c1ccc(F)cc1F`
Response: 5

Request: `CCc1cccc(CC)c1-n1c(=O)on(C(=O)N(c2ccc(F)cc2)C(C)C)c1=O` ?
Response: 0

Request: Lookup `COC(=O)C=CCn1c(=O)on(C(=O)N(c2ccc(F)cc2)C(C)C)c1=O`
Response: 0

Request: Another compound to check: `CC(C)Cn1c(=O)on(C(=O)N(c2ccccc2)C(C)C)c1=O`
Response: 7

Request: Now this one: `CC(C)N(C(=O)n1oc(=O)n(Cc2ccccn2)c1=O)c1ccc(F)cc1`
Response: 0

====

Give B. signalgrass plant response rating for every item shown.
- Test system: surinam grass
- test.summary: Test B pre/postemergence surinam grass
- Type: in vivo, Brachiaria decumbens
- test.context: Rate 125 g/ha, Postemergence; scale 0 (no effect) to 10 (complete control)
// return just the number, without any unit appended

Request: May I ask what B. signalgrass plant response rating has been recorded for CCOC(=O)C(C)N(C(=O)n1oc(=O)n(-c2ccccc2C)c1=O)c1ccc(F)cc1 (stereo not shown) [Compound 247] ?
Response: 0

Request: Try this compound next: [2H]C([2H])([2H])n1c(=O)on(C(=O)N(c2ccc(F)cc2)C(C)C)c1=O [Compound 245]
Response: 4

Request: What do you get for CCCCCCCCCCCCCCCCCCCn1c(=O)on(C(=O)N(c2ccc(F)cc2)C(C)C)c1=O [Compound 253] ?
Response: 0

Request: Same read-out for COC(=O)C=CCn1c(=O)on(C(=O)N(c2ccc(F)cc2)C(C)C)c1=O [Compound 263] ?
Response: 0
